Some binders, each annotated with its measured effective inhibitory concentration, beta-actin RT-qPCR from HeLa cell lysates.
target: proteinase K (UniProt P06873 106-384); assay: cell-based or functional assay
Sequence (P06873 106-384 limits assumed): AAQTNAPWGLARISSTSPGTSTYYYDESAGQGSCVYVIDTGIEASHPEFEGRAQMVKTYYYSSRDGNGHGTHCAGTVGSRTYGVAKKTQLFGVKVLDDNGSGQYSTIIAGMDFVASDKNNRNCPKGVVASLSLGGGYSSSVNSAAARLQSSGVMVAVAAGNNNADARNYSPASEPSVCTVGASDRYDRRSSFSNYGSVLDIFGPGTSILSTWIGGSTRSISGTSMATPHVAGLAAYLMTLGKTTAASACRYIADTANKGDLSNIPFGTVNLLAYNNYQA
The star is where a group is joined. MeOSuc = COC(=O)CCC(=O)*; CH2Cl = ClC*

Query (binder): AAAPV (HELM PEPTIDE1{[COC(=O)CCC(=O)[*:2]].A.A.A.P.V.[ClC[*:1]]}$$$$V2.0; SMILES COC(=O)CCC(=O)N[C@@H](C)C(=O)N[C@@H](C)C(=O)N[C@@H](C)C(=O)N1CCC[C@H]1C(=O)N[C@H](C(=O)CCl)C(C)C) [MeOSuc-AlaAlaAlaProVal-CH2Cl] ; field requested: effective inhibitory concentration, beta-actin RT-qPCR from HeLa cell lysates
0.5 mM

Query (binder): AAAPL (HELM PEPTIDE1{[COC(=O)CCC(=O)[*:2]].A.A.A.P.L.[ClC[*:1]]}$$$$V2.0; SMILES COC(=O)CCC(=O)N[C@@H](C)C(=O)N[C@@H](C)C(=O)N[C@@H](C)C(=O)N1CCC[C@H]1C(=O)N[C@@H](CC(C)C)C(=O)CCl, also called MeOSuc-AAAPL-CH2Cl; A3PL) [MeOSuc-AlaAlaAlaProLeu-CH2Cl] ; field requested: effective inhibitory concentration, beta-actin RT-qPCR from HeLa cell lysates
~0.1 mM

Query (binder): MeOSuc-AAPV-CH2Cl (also called MeOSuc-AAPV-CH2Cl; MSVCK) [methoxysuccinyl-AlaAlaProVal-chloromethyl ketone] ; field requested: effective inhibitory concentration, beta-actin RT-qPCR from HeLa cell lysates
0.5 mM

Query (binder): AAPL (HELM PEPTIDE1{[COC(=O)CCC(=O)[*:2]].A.A.P.L.[ClC[*:1]]}$$$$V2.0; SMILES COC(=O)CCC(=O)N[C@@H](C)C(=O)N[C@@H](C)C(=O)N1CCC[C@H]1C(=O)N[C@@H](CC(C)C)C(=O)CCl, also called MeOSuc-AAPL-CH2Cl; methoxysuccinyl-AAPL-chloromethyl ketone) [MeOSuc-AlaAlaProLeu-CH2Cl] ; field requested: effective inhibitory concentration, beta-actin RT-qPCR from HeLa cell lysates
~0.1 mM

Query (binder): AAAPF (HELM PEPTIDE1{[COC(=O)CCC(=O)[*:2]].A.A.A.P.F.[ClC[*:1]]}$$$$V2.0; SMILES COC(=O)CCC(=O)N[C@@H](C)C(=O)N[C@@H](C)C(=O)N[C@@H](C)C(=O)N1CCC[C@H]1C(=O)N[C@@H](Cc1ccccc1)C(=O)CCl) [MeOSuc-AlaAlaAlaProPhe-CH2Cl] ; field requested: effective inhibitory concentration, beta-actin RT-qPCR from HeLa cell lysates
0.1 mM
